System: KRAS-mutant PDC complex spheroid viability
protocol: Anticancer human tumor 186277-243-T-J2-PDC patient-derived colon adenocarcinoma cell line growth inhibition [KRAS2]
conditions used: second compound 0.316 µM; first compound 0.316 µM; stronger effect = lower value
quantity: viability, T/C (%)
One number for each entry, in %.

Consider the worked cases shown below.
{"compound": "O=C(c1cc(Cc2n[nH]c(=O)c3ccccc23)ccc1F)N1CCN(C(=O)C2CC2)CC1 + COc1cc2nc(C)nc(NC(C)c3cc(N)cc(C(F)(F)F)c3)c2cc1OC1CCOC1", "recorded result": 107}
{"compound": "CC1(C)CCC(CN2CCN(c3ccc(C(=O)NS(=O)(=O)c4ccc(NCC5CCOCC5)c([N+](=O)[O-])c4)c(Oc4cnc5[nH]ccc5c4)c3)CC2)=C(c2ccc(Cl)cc2)C1 + CC1OCC2(CCN(c3cnc(Sc4ccnc(N)c4Cl)c(N)n3)CC2)C1N", "recorded result": 130}
{"compound": "COC(=O)c1ccc2c(C(=Nc3ccc(N(C)C(=O)CN4CCN(C)CC4)cc3)c3ccccc3)c(O)[nH]c2c1 + CC1OCC2(CCN(c3cnc(Sc4ccnc(N)c4Cl)c(N)n3)CC2)C1N", "recorded result": 113}

Quick request: viability, T/C for each listed item, please.
1. O=C(c1cc(Cc2n[nH]c(=O)c3ccccc23)ccc1F)N1CCN(C(=O)C2CC2)CC1 + C=CC(=O)N1CCN(c2nc(=O)n(-c3c(C)ccnc3C(C)C)c3nc(-c4c(O)cccc4F)c(F)cc23)C(C)C1
2. CC(=O)OC12COC1CC(O)C1(C)C(=O)C(O)C3=C(C)C(OC(=O)C(O)C(NC(=O)OC(C)(C)C)c4ccccc4)CC(O)(C(OC(=O)c4ccccc4)C21)C3(C)C (stereo not given) + CNCc1ccccc1-c1csc(C(C)Nc2nc(C)nc3cc(OC)c(OC)cc23)c1

Response:
1. 107
2. 2.5

###

Tested on: KRAS-mutant PDC complex spheroid viability
protocol: Anticancer human tumor 186277-243-T-J2-PDC cell line growth inhibition [KRAS2]; active means viability on the fitted dose curve at most 10% of control; inactive means the rest;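 also: viability read after seven days of compound exposure; 100% = DMSO vehicle-treated spheroids so lower means less viable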
conditions used: second compound 0.0316 µM; first compound 0.1 µM
Outcomes you can answer with include only these: yes (1) for active, no (0) for inactive

{"compound": "COC(=O)c1ccc2c(C(=Nc3ccc(N(C)C(=O)CN4CCN(C)CC4)cc3)c3ccccc3)c(O)[nH]c2c1 + C=CC(=O)N1CCN(c2nc(OCC3CCCN3C)nc3c2CCN(c2cccc4cccc(C)c24)C3)CC1CC#N", "assay system": "KRAS-mutant PDC complex spheroid viability", "group": "no (0)"}
{"compound": "CC(=O)OC12COC1CC(O)C1(C)C(=O)C(O)C3=C(C)C(OC(=O)C(O)C(NC(=O)OC(C)(C)C)c4ccccc4)CC(O)(C(OC(=O)c4ccccc4)C21)C3(C)C (stereo not given) + C=CC(=O)N1CCN(c2nc(OCC3CCCN3C)nc3c2CCN(c2cccc4cccc(C)c24)C3)CC1CC#N", "assay system": "KRAS-mutant PDC complex spheroid viability", "group": "yes (1)"}
{"compound": "CC(C)n1nc(-c2ccc3oc(N)nc3c2)c2c(N)ncnc21 + C=CC(=O)N1CCN(c2nc(OCC3CCCN3C)nc3c2CCN(c2cccc4cccc(C)c24)C3)CC1CC#N", "assay system": "KRAS-mutant PDC complex spheroid viability", "group": "no (0)"}

Prompt: Assay outcome for COc1cc2nccc(Oc3ccc(NC(=O)C4(C(=O)Nc5ccc(F)cc5)CC4)cc3)c2cc1OC + C=CC(=O)N1CCN(c2nc(OCC3CCCN3C)nc3c2CCN(c2cccc4cccc(C)c24)C3)CC1CC#N : what was it?
Response: no (0)

Prompt: Outcome? CC1OCC2(CCN(c3cnc(Sc4ccnc(N)c4Cl)c(N)n3)CC2)C1N (stereo not given) + C=CC(=O)N1CCN(c2nc(OCC3CCCN3C)nc3c2CCN(c2cccc4cccc(C)c24)C3)CC1CC#N
Response: no (0)

Prompt: Test call, this compound: COc1cc(Nc2ncc3c(n2)-c2ccc(Cl)cc2C(c2c(F)cccc2OC)=NC3)ccc1C(=O)O + C=CC(=O)N1CCN(c2nc(OCC3CCCN3C)nc3c2CCN(c2cccc4cccc(C)c24)C3)CC1CC#N
Response: no (0)

Prompt: Entry CC1(C)CCC(CN2CCN(c3ccc(C(=O)NS(=O)(=O)c4ccc(NCC5CCOCC5)c([N+](=O)[O-])c4)c(Oc4cnc5[nH]ccc5c4)c3)CC2)=C(c2ccc(Cl)cc2)C1 + C=CC(=O)N1CCN(c2nc(OCC3CCCN3C)nc3c2CCN(c2cccc4cccc(C)c24)C3)CC1CC#N : call = ?
Response: no (0)

Prompt: Hello, I am checking results. What call was entered for O=C(c1cc(Cc2n[nH]c(=O)c3ccccc23)ccc1F)N1CCN(C(=O)C2CC2)CC1 + C=CC(=O)N1CCN(c2nc(OCC3CCCN3C)nc3c2CCN(c2cccc4cccc(C)c24)C3)CC1CC#N ?
Response: no (0)

Prompt: // return assay outcome for Cn1nccc1Nc1nccc(-c2cc3c(s2)C(C)(C)N(CCN2CCOCC2)C3=O)n1 + C=CC(=O)N1CCN(c2nc(OCC3CCCN3C)nc3c2CCN(c2cccc4cccc(C)c24)C3)CC1CC#N
Response: no (0)

Prompt: Can you look up the reported call for CCNC(=O)CC1N=C(c2ccc(Cl)cc2)c2cc(OC)ccc2-n2c(C)nnc21 (stereo not given) + C=CC(=O)N1CCN(c2nc(OCC3CCCN3C)nc3c2CCN(c2cccc4cccc(C)c24)C3)CC1CC#N for me?
Response: no (0)
